The listing below reports Ki for compounds tested on 72 kDa type IV collagenase (Homo sapiens).
Sequence (P08253 whole entry): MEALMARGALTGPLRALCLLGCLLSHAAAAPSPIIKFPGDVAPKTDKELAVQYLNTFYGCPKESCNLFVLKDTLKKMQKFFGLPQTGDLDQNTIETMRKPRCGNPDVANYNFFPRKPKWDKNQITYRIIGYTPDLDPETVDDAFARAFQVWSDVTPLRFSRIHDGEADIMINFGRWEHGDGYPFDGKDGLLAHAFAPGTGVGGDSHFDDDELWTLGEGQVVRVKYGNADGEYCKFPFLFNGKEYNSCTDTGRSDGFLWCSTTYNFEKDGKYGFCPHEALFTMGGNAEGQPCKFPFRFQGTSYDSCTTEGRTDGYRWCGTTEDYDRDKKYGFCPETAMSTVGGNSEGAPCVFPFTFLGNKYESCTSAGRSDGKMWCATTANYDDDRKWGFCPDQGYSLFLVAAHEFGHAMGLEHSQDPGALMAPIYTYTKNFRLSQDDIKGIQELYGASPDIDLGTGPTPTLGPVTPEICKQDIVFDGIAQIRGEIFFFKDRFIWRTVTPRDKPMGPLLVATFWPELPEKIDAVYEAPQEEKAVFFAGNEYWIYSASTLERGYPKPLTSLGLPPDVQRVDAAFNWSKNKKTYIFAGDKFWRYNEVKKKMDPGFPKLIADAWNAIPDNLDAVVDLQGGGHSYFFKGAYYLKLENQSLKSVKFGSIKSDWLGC
endpoint: Ki (µM)

>  <cpdSmiles>
CNC(=O)[C@H](CO)NC(=O)Nc1n[nH]c(=S)s1

>  <tgt>
72 kDa type IV collagenase (Homo sapiens)

>  <relationalOperator>
>

>  <quantitativeResult>
200

$$$$
>  <cpdSmiles>
CNC(=O)[C@H](Cc1ccccc1)NC(=O)Nc1nnc(S)s1

>  <tgt>
72 kDa type IV collagenase (Homo sapiens)

>  <relationalOperator>
=

>  <quantitativeResult>
3

$$$$
>  <cpdSmiles>
CNC(=O)CNC(=O)Nc1n[nH]c(=S)s1

>  <tgt>
72 kDa type IV collagenase (Homo sapiens)

>  <relationalOperator>
>

>  <quantitativeResult>
100

$$$$
>  <cpdSmiles>
CNC(=O)[C@H](Cc1c(F)c(F)c(F)c(F)c1F)NC(=O)Nc1nnc(S)s1

>  <tgt>
72 kDa type IV collagenase (Homo sapiens)

>  <relationalOperator>
=

>  <quantitativeResult>
3

$$$$
>  <cpdSmiles>
CN(C)C(=O)[C@H](Cc1ccccc1)NC(=O)Nc1nnc(S)s1

>  <tgt>
72 kDa type IV collagenase (Homo sapiens)

>  <relationalOperator>
=

>  <quantitativeResult>
226

$$$$
